# TEST_TARGET: NK3 (Homo sapiens)
# Sequence (P29371 1-465): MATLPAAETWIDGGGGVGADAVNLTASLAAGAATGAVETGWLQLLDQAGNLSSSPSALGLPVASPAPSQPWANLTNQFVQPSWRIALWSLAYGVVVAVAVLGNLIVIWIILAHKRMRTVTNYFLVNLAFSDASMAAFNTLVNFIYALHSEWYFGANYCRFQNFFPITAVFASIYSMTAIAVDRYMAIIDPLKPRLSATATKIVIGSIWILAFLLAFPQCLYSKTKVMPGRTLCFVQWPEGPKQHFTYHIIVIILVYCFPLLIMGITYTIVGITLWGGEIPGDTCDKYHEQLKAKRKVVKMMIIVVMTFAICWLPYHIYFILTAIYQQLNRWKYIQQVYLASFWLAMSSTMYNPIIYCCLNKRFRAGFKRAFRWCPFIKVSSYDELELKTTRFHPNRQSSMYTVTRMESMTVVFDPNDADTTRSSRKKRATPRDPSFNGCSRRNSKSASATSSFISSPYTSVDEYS
# EXPERIMENT_NOTES: Signal transduction (ST), intracellular Ca++ (FLIPR), NK3
# Format: cell-based
Classify as follows. Reported pIC50 NK3 greater than or equal to 6: MET. Reported pIC50 NK3 below: NOT MET.

MOLECULE	TEST_TARGET	CLASS
COc1ccccc1S(=O)(=O)N1CCCC(N2CCN([C@H]3CCN(C(=O)c4cc(C(F)(F)F)cc(C(F)(F)F)c4)[C@H](Cc4ccccc4)C3)CC2)C1 (stereo partly drawn) [Compound 68]	NK3 (Homo sapiens)	NOT MET
CC(C)(C)OC(=O)N1CCC[C@@H]1C(=O)N1CCCC(N2CCN([C@H]3CCN(C(=O)c4cc(C(F)(F)F)cc(C(F)(F)F)c4)[C@H](Cc4ccccc4)C3)CC2)C1 (stereo partly drawn) [Compound 53]	NK3 (Homo sapiens)	MET
O=C(c1cc(C(F)(F)F)cc(C(F)(F)F)c1)N1CC[C@H](N2CCN(C3CCCN(S(=O)(=O)c4cccs4)C3)CC2)C[C@H]1Cc1ccccc1 (stereo partly drawn) [Compound 25]	NK3 (Homo sapiens)	MET
O=C(Nc1ccc(Cl)cc1)N1CCCC(N2CCN([C@H]3CCN(C(=O)c4cc(C(F)(F)F)cc(C(F)(F)F)c4)[C@H](Cc4ccccc4)C3)CC2)C1 (stereo partly drawn) [Compound 74]	NK3 (Homo sapiens)	NOT MET
O=C(c1cc(C(F)(F)F)cc(C(F)(F)F)c1)N1CC[C@H](N2CCN(C3CCCN(S(=O)(=O)c4cc(Cl)sc4Cl)C3)CC2)C[C@H]1Cc1ccccc1 (stereo partly drawn) [Compound 40]	NK3 (Homo sapiens)	MET
COc1cccc(S(=O)(=O)N2CCCC(N3CCN([C@H]4CCN(C(=O)c5cc(C(F)(F)F)cc(C(F)(F)F)c5)[C@H](Cc5ccccc5)C4)CC3)C2)c1 (stereo partly drawn) [Compound 69]	NK3 (Homo sapiens)	MET
O=C(c1cc(C(F)(F)F)cc(C(F)(F)F)c1)N1CC[C@H](N2CCN(C3CCCN(S(=O)(=O)c4ccc(CCO)s4)C3)CC2)C[C@H]1Cc1ccccc1 (stereo partly drawn) [Compound 86]	NK3 (Homo sapiens)	MET
O=C(c1cc(CCOCc2ccccc2)cs1)N1CCCC(N2CCN([C@H]3CCN(C(=O)c4cc(C(F)(F)F)cc(C(F)(F)F)c4)[C@H](Cc4ccccc4)C3)CC2)C1 (stereo partly drawn) [Compound 99]	NK3 (Homo sapiens)	NOT MET
O=C(c1cc(C(F)(F)F)cc(C(F)(F)F)c1)N1CC[C@H](N2CCN(C3CCCN(S(=O)(=O)c4ccc(Cl)s4)C3)CC2)C[C@H]1Cc1ccccc1 (stereo partly drawn) [Compound 36]	NK3 (Homo sapiens)	MET
